The measurements presented in this section are drawn from FireProtDB (doi:10.1021/bi0015717).

B1: Lysozyme C, P61626 (parent)
chain: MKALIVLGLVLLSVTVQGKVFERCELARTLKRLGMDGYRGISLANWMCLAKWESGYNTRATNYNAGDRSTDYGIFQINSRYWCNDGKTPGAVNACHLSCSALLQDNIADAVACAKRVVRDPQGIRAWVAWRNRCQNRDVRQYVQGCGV

Variants of: B1
Settings: Homo sapiens; pH 2.5; Thermal; DSC; glycine-HCl 0.05 M; reversible: yes; structure 1LZ1; whole UniProt chain shown
MEASUREMENT KIND: Tm (°C)
Field: numeric (°C). Do not append units.

Task item: Given the variant V92M , what is its reported Tm?
Reply: 63.4

Task item: Given the variant V20I , what is its reported Tm?
Reply: 65.1

Task item: Given the variant V92L , what is its reported Tm?
Reply: 62.4

Now consider the entry below.
Task item: Given the variant V128L , what is its reported Tm?
Reply: 61.9
